- subjectOfTest: Mtb-DprE1 (Mycobacterium tuberculosis, UniProt P9WJF1)
- Construct: made in house; host or cells: E. coli
- Sequence (P9WJF1 whole entry): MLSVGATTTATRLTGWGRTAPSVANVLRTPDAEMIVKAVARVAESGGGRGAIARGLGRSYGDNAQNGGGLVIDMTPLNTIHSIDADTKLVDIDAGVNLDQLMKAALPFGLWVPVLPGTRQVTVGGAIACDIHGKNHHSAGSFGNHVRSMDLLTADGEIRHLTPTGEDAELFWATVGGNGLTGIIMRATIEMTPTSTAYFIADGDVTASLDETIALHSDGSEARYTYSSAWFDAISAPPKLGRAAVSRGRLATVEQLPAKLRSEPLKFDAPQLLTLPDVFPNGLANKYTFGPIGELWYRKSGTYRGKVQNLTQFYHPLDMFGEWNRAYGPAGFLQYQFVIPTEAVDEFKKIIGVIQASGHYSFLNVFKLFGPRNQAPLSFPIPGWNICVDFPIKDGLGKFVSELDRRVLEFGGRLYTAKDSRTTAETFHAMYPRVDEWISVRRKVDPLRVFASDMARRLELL
- assay: biochemical
- Assay type: biochemical
- assayConditions: inhibitor 10 nM to 100 µM
endpointLabel: dependence of kobs on inhibitor concentration

Here are 6 compounds together with their reported answers.
INSERT INTO measurements (compound, subjectoftest, result) VALUES
  ('CC1COC2(CCN(c3nc(=O)c4cc(C(F)(F)F)cc(N=O)c4s3)CC2)O1 (stereo not shown) [Compound 8]', 'Mtb-DprE1 (Mycobacterium tuberculosis, UniProt P9WJF1)', 'linear dependence'),
  ('O=c1nc(N2CCCCC2)sc2c([N+](=O)[O-])cc(C(F)(F)F)cc12 [Compound 7]', 'Mtb-DprE1 (Mycobacterium tuberculosis, UniProt P9WJF1)', 'linear dependence'),
  ('O=c1nc(N2CCCCC2)oc2c([N+](=O)[O-])cc(C(F)(F)F)cc12 [Compound 4]', 'Mtb-DprE1 (Mycobacterium tuberculosis, UniProt P9WJF1)', 'linear dependence'),
  ('CC1CCCC(C)N1c1nc(=O)c2cc(C(F)(F)F)cc([N+](=O)[O-])c2o1 (stereo not shown) [Compound 5]', 'Mtb-DprE1 (Mycobacterium tuberculosis, UniProt P9WJF1)', 'linear dependence'),
  ('O=c1nc(N2CCN(CC3CCCCC3)CC2)oc2c([N+](=O)[O-])cc(C(F)(F)F)cc12 [Compound 10]', 'Mtb-DprE1 (Mycobacterium tuberculosis, UniProt P9WJF1)', 'hyperbolic dependence'),
  ('O=c1nc(N2CCOCC2)oc2c([N+](=O)[O-])cc(C(F)(F)F)cc12 [Compound 3]', 'Mtb-DprE1 (Mycobacterium tuberculosis, UniProt P9WJF1)', 'linear dependence');

Dear colleague, could you send me dependence of kobs on inhibitor concentration for each of the items below? Thanks.
1. C[C@H]1COC2(CCN(c3nc(=O)c4cc(C(F)(F)F)cc([N+](=O)[O-])c4s3)CC2)O1 [Compound 12, reference compound]
2. CC1CCCC(C)N1c1nc(=O)c2cc(C(F)(F)F)cc([N+](=O)[O-])c2s1 (stereo not shown) [Compound 9]
3. O=c1nc(N2CCOCC2)sc2c([N+](=O)[O-])cc(C(F)(F)F)cc12 [Compound 6]

1. linear dependence
2. linear dependence
3. hyperbolic dependence

Answer with the recorded dependence of kobs on inhibitor concentration of O=c1nc(N2CCCCC2)sc2c([N+](=O)[O-])c(Cl)c(C(F)(F)F)cc12 [Compound 11] only.
hyperbolic dependence

====

Provide the recorded CLND Solubility for the entries that follow.
- Format: physicochemical
- assayConditions: pH 7.4
One number for each entry, in µM.

INSERT INTO assay_data (structureassmiles, endpointlabel, recordednumber) VALUES
  ('O=c1nc(N2CCN(CC3CCCCC3)CC2)sc2c([N+](=O)[O-])cc(C(F)(F)F)cc12', 'CLND Solubility', 32);

// each listed molecule needs a value for CLND Solubility
1. O=c1nc(N2CCN(CC3CCCCC3)CC2)oc2c([N+](=O)[O-])cc(C(F)(F)F)cc12
2. O=c1nc(N2CCCCC2)sc2c([N+](=O)[O-])cc(C(F)(F)F)cc12

[12, 370]

====

- Type: physicochemical
- assayConditions: pH 7.4
- Experimental: Solubility of compounds was measured by Chemi-Luminescent Nitrogen Detection (CLND)[32]. […] of 10 mM DMSO stock solutions of compounds were diluted to […] with phosphate buffered saline (PBS), pH 7.4, equilibrated for 1 hour at room temperature and filtered through Millipore Multiscreen HTS-PCF filter plates (MSSL BPC) prior to analysis by CLND.
Please provide measured CLND Solubility for the entries that follow.
One number for each entry, in µM.

INSERT INTO assay_data (structureassmiles, outputunit, recordednumber) VALUES
  ('O=Nc1cc(C(F)(F)F)cc2c(=O)nc(N3CCCCC3)sc12', 'µM', 250),
  ('C[C@H]1COC2(CCN(c3nc(=O)c4cc(C(F)(F)F)cc([N+](=O)[O-])c4s3)CC2)O1', 'µM', 32),
  ('O=c1nc(N2CCCCC2)sc2c(NO)cc(C(F)(F)F)cc12', 'µM', 10);

For the compound C[C@H]1COC2(CCN(c3nc(=O)c4cc(C(F)(F)F)cc(N=O)c4s3)CC2)O1 , give its measured CLND Solubility value.
210

====

- System: M. tuberculosis H37Rv
- assay: Minimal inhibitory concentration, M. tuberculosis H37Rv
- Type: cell-based, Mycobacterium tuberculosis
- assayConditions: n = 3; read-out: MIC Mtb-H37Rv
endpointLabel: MIC (µM)
Answers are plain numbers, in µM.

Please review the entries below; each comes with its answer.
INSERT INTO results (structureassmiles, subjectoftest, recordednumber) VALUES
  ('O=c1nc(N2CCN(CC3CCCCC3)CC2)oc2c([N+](=O)[O-])cc(C(F)(F)F)cc12', 'M. tuberculosis H37Rv', 0.31),
  ('O=c1nc(N2CCN(CC3CCCCC3)CC2)sc2c([N+](=O)[O-])cc(C(F)(F)F)cc12', 'M. tuberculosis H37Rv', 0.00042),
  ('O=c1nc(N2CCOCC2)sc2c([N+](=O)[O-])cc(C(F)(F)F)cc12', 'M. tuberculosis H37Rv', 5.9);

Please give the documented MIC of O=c1nc(N2CCCCC2)sc2c([N+](=O)[O-])cc(C(F)(F)F)cc12
3.3

====

- Test system: M. tuberculosis H37Rv
- assay: Minimal inhibitory concentration, M. tuberculosis H37Rv
- Format: cell-based, Mycobacterium tuberculosis
- assayConditions: n = 3; read-out: MIC Mtb-H37Rv
Please respond with reported MIC for every item in the list.
One number for each entry, in µM.

INSERT INTO results (structureassmiles, subjectoftest, outputunit, recordednumber) VALUES
  ('O=c1nc(N2CCOCC2)oc2c([N+](=O)[O-])cc(C(F)(F)F)cc12', 'M. tuberculosis H37Rv', 'µM', 3.9);

Below are some compounds; for each one, tell me its MIC.
1. C[C@H]1COC2(CCN(c3nc(=O)c4cc(C(F)(F)F)cc([N+](=O)[O-])c4s3)CC2)O1
2. O=c1nc(N2CCCCC2)oc2c([N+](=O)[O-])cc(C(F)(F)F)cc12

0.0023
16

====

- subjectOfTest: Mtb-DprE1 (Mycobacterium tuberculosis)
- Construct: made in house; host or cells: E. coli
- assay: biochemical
- Assay type: biochemical
- assayConditions: IC50, final value of the decrease during the first 100 min of reaction, 100 min of reaction
endpointLabel: pIC50
One number for each entry, as −log10 of the molar value.

INSERT INTO results (compound, endpointlabel, recordednumber) VALUES
  ('O=c1nc(N2CCCCC2)sc2c(NO)cc(C(F)(F)F)cc12 [Compound 2]', 'pIC50', 6.10);

Given O=Nc1cc(C(F)(F)F)cc2c(=O)nc(N3CCCCC3)sc12 [Compound 1] , report its pIC50 on Mtb-DprE1 (Mycobacterium tuberculosis).
5.52

====

- Tested on: M. vaccae 10670
- assay: Minimal inhibitory concentration, M. vaccae
- Format: cell-based
- assayConditions: n = 1
For each of the compounds below, state its MIC M. vaccae 10670.
One number for each entry, in µg/mL.

INSERT INTO assay_data (compound, subjectoftest, endpointlabel, outputunit, recordednumber) VALUES
  ('O=c1nc(N2CCCCC2)oc2c([N+](=O)[O-])cc(C(F)(F)F)cc12', 'M. vaccae 10670', 'MIC M. vaccae 10670', 'µg/mL', 1.6);

Take each entry in turn and give its MIC M. vaccae 10670.
1. O=c1nc(N2CCCCC2)sc2c(NO)cc(C(F)(F)F)cc12
2. O=c1nc(N2CCCCC2)sc2c([N+](=O)[O-])cc(C(F)(F)F)cc12 [C00002]
3. O=c1nc(N2CCOCC2)oc2c([N+](=O)[O-])cc(C(F)(F)F)cc12
4. O=Nc1cc(C(F)(F)F)cc2c(=O)nc(N3CCCCC3)sc12
5. O=c1nc(N2CCOCC2)sc2c([N+](=O)[O-])cc(C(F)(F)F)cc12
6. C[C@H]1COC2(CCN(c3nc(=O)c4cc(C(F)(F)F)cc([N+](=O)[O-])c4s3)CC2)O1
7. C[C@H]1COC2(CCN(c3nc(=O)c4cc(C(F)(F)F)cc(N=O)c4s3)CC2)O1

1: 6.2; 2: 0.4; 3: 6.2; 4: 25; 5: 3.1; 6: 0.0004; 7: 0.03

====

- subjectOfTest: Mtb-DprE1 (Mycobacterium tuberculosis)
- Construct: made in house; host or cells: E. coli
- assay: biochemical
- Format: biochemical
- assayConditions: second order rate constant of inactivation; 150 nM Mtb-DprE1, 1 mM FPR, up to 100 min
endpointLabel: kinact/Ki (M⁻¹ s⁻¹)
One number for each entry, in M⁻¹ s⁻¹.

INSERT INTO measurements (structureassmiles, subjectoftest, recordednumber) VALUES
  ('C[C@H]1COC2(CCN(c3nc(=O)c4cc(C(F)(F)F)cc([N+](=O)[O-])c4s3)CC2)O1', 'Mtb-DprE1 (Mycobacterium tuberculosis)', 720),
  ('O=c1nc(N2CCOCC2)sc2c([N+](=O)[O-])cc(C(F)(F)F)cc12', 'Mtb-DprE1 (Mycobacterium tuberculosis)', 17),
  ('O=c1nc(N2CCN(CC3CCCCC3)CC2)oc2c([N+](=O)[O-])cc(C(F)(F)F)cc12', 'Mtb-DprE1 (Mycobacterium tuberculosis)', 300);

List reported kinact/Ki for each of these compounds:
1. O=c1nc(N2CCOCC2)oc2c([N+](=O)[O-])cc(C(F)(F)F)cc12
2. C[C@H]1COC2(CCN(c3nc(=O)c4cc(C(F)(F)F)cc(N=O)c4s3)CC2)O1
3. O=c1nc(N2CCCCC2)oc2c([N+](=O)[O-])cc(C(F)(F)F)cc12
4. O=c1nc(N2CCCCC2)sc2c([N+](=O)[O-])cc(C(F)(F)F)cc12

1. 4.2
2. 39
3. 5.6
4. 39
